Known log10 of IC50 of a selection of compounds
# System: UV4
# test: Growth inhibition (IC50), UV4 cells, aerobic
# Type: cell-based
# applied conditions: air, 18 h exposure
quantity name: log10 of IC50 (log10 of the value in µM)

{"columns": ["query smiles", "log10 of IC50"],
 "data": [
  ["O=C(O)c1cc(N(CCCl)CCCl)c([N+](=O)[O-])cc1[N+](=O)[O-]", 2.50],
  ["N#Cc1cc(N(CCCl)CCCl)c([N+](=O)[O-])cc1[N+](=O)[O-]", 0.36],
  ["NC(=O)c1cc(N(CCBr)CCBr)c([N+](=O)[O-])cc1[N+](=O)[O-]", 1.04],
  ["NC(=O)c1cc(N(CCCl)CCCl)c([N+](=O)[O-])cc1[N+](=O)[O-]", 2.04],
  ["NC(=O)c1cc(N(CCI)CCI)c([N+](=O)[O-])cc1[N+](=O)[O-]", 1.18]
]}

All values here come from patent US5750782A.
